The measurements presented in this section are drawn from the supplement of paper PMC10567573.

B1: CDC25B (parent)
chain: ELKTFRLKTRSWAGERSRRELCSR

- Variants of: B1
- experimentalProtocol: protein stability index of a GFP-peptide fusion (GPS, HEK-293T) (PSI 1-6); higher = more stable;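 note: lentivirally expressed fusions sorted by FACS into six bins by GFP to DsRed ratio, PSI derived from sequencing read proportions per bin multiplied by bin number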
- assayConditions: c terminus: a fixed tail appended
We begin with a simple list: items and their reported protein stability index.
reportedProperty: protein stability index

>>> quantitativereadout("W12Y")
3.66
>>> quantitativereadout("T4R")
2.52
>>> quantitativereadout("R19V")
2.74
>>> quantitativereadout("E20Y")
2.69
>>> quantitativereadout("S11F")
2.58
>>> quantitativereadout("F5Q")
3.67
>>> quantitativereadout("K8D")
3.41
>>> quantitativereadout("L21D")
3.98
>>> quantitativereadout("G14R")
2.73
>>> quantitativereadout("G14V")
2.19
>>> quantitativereadout("R18W")
2.84
>>> quantitativereadout("C22A")
3.36
